Values from the array DNA melting data of Ke et al. (doi:10.1101/2024.01.08.574731)

Experiment: folding enthalpy; higher = less favourable; fluorescence melt of hairpins on a sequencing array, two-state fit
Settings: sodium 0.088 M
Collected folding enthalpy values appear next to each entry.
Write the answer as a number in kcal/mol, unit excluded.

Guide cases for folding enthalpy, answers given:
GTGCAGGGAAACCTACAC (((.(((....))).))) :: -31.9
GATCTGGTATCAGATC ((((((....)))))) :: -41.8

Using the record for GCAATAGGAAACTATTGC (((((((....))))))) , report its folding enthalpy.
-45.8

----------
Experiment: folding enthalpy; higher = less favourable; fluorescence melt of hairpins on a sequencing array, two-state fit
Settings: sodium 0.088 M
Collected folding enthalpy values appear next to each entry.
Write the answer as a number in kcal/mol, unit excluded.

Guide cases for folding enthalpy, answers given:
GTATCACGAAAGTGTTAC (((.(((....))).))) :: -25.8
GTGGTCCGAAAGGAGCAC (((.(((....))).))) :: -34.6
GGCTATGGAAACATGGCC (((.(((....))).))) :: -53.7
GATCTCGCTGAGATC ((((((...)))))) :: -43.6
GCTACCGAAAGGTGCAGC ((((((....)))..))) :: -12.6

Using the record for GATCTGCCATCAGATC ((((((....)))))) , report its folding enthalpy.
-46

Using the record for GATCGCTTGAGCGATC ((((((....)))))) , report its folding enthalpy.
-27.6

Using the record for GTCTTTGGAAACAGAGAC ((((.((....)).)))) , report its folding enthalpy.
-26

Using the record for GTGTCCGAAAGGAAGCAC ((((((....)))..))) , report its folding enthalpy.
-19.2

Using the record for GCGAGGCGAAAGCTACGC (((..((....))..))) , report its folding enthalpy.
-24.3
